Hey, just so you know, these numbers are from PubChem BioAssay (NCI).

test system: SF-268 CNS; assay: NCI tumour cell line growth inhibition, 48 h
Reported Property: TGI (µM)
Record the value in µM, omitting the unit from your answer.

Prompt: Dear colleague, I am looking for the recorded TGI of the following compound: Cc1cc(NCCCCCCCNc2cc(C)nc3cc([N+](=O)[O-])ccc23)c2ccc([N+](=O)[O-])cc2n1
Response: 7.5

Prompt: Continue with CC(=O)Oc1ccccc1C(=O)/C=C/c1cccc([N+](=O)[O-])c1
Response: 12.4

Prompt: Continue with CCC(c1c[nH]c2ccc(Br)cc12)c1c[nH]c2ccc(Br)cc12
Response: 20.7

Prompt: Continue with N#Cc1ccc(N=Cc2c([O-])ccc3ccccc23)cc1.[C-]#[O+].[C-]#[O+].[Ir]
Response: 29.2
